assay: gradient 5% acetonitrile 3 min, to 50% in 2 min, to 85% in 15 min, held 3 min, 100 µL/min; settings: column: Zorbax Extend-C18 2.1 x 50 mm; eluents: water / acetonitrile, 0.1% formic acid
ASSAY_METRIC: RP-LC retention time (s)

- CC(C)n1cc(CN2CC(F)(F)C[C@H]2COc2cccnc2)c2ccccc21: 698
- Nc1cc(C2CCN(C(=O)NCc3ccc(F)cc3)CC2)no1: 671
- CCS(=O)(=O)N1CCc2nc(-c3ccc(F)cc3)ncc2C1: 847
- CCCCCOc1ccc(Nc2nc(C(=O)OCC)nc3ccccc23)cc1: 789
- Cc1cccc(-c2noc(C3CCCN3S(=O)(=O)c3ccc4c(c3)CCCC4)n2)c1 (stereo not given): 1340
- CC1=CC(C)(C(Cl)(Cl)Cl)C(C)=C/C1=N/O (stereo not given): 1100
- CCOc1cc(=O)n2c(c1C(=O)Nc1ccc3c(c1)CCC3)CCCC2: 815
- CC(C)(C)c1nnc(NC(=O)C2CCN(C(=O)c3cccc(F)c3)CC2)s1: 765
- CC(C)Sc1ccc(CC(=O)NCC2(O)CCCC2)cc1: 752
- CC(C)NC(=O)N(CC(=O)N1CCc2sccc2C1COc1ccccc1)CC1CC1 (stereo not given): 943
